RUN_DESCRIPTION: Cytotoxicity against human HuH7 cells by MTT assay
Type: cell-based, Huh-7
TEST_PARAMETERS: read-out: TD50 (the source's name)
OUTCOME_MEASURE: CC50

Data request, read-out CC50, for `COc1cc([N+](=O)[O-])c(N2CCC(=O)NC2=O)cc1C(C)(C)C` > 50 µM

----------
RUN_DESCRIPTION: Inhibition of HCV genotype 2b NS5B polymerase assessed as inhibition of [3H]UTP incorporation after 2 hrs by scintillation counting
Set-up: species or system Hepatitis C virus subtype 2b
pIC50: −log10 of the molar value.
OUTCOME_MEASURE: pIC50

Find the recorded pIC50 belonging to `COc1cc([N+](=O)[O-])c(N2CCC(=O)NC2=O)cc1C(C)(C)C` and report it. < 3.70
